Test system: E. coli AG100
protocolNotes: Broth microdilution MIC, E. coli AG100 (wild-type parent)
Format: cell-based
experimentalParameters: Escherichia coli; wild-type parent E. coli AG100, broth microdilution; read-out: MIC E. coli AG100
measuredMetric: MIC

Previously resolved entries follow.
compound | experimentalResult
NCCCN1CCN(C(=O)NC(C(=O)N[C@H]2Cc3cccc(C(=O)O)c3OB2O)c2ccc(O)c(O)c2Cl)C(=O)C1=O (stereo partly shown) | 0.5 to 1 µg/mL
CCN1CCN(C(=O)NC(C(=O)N[C@H]2Cc3cccc(C(=O)O)c3OB2O)c2nsc(N)n2)C(=O)C1=O (stereo partly shown) | 32 to 64 µg/mL
CS(=O)(=O)N1CCN(C(=O)NC(C(=O)N[C@H]2Cc3cccc(C(=O)O)c3OB2O)c2ccc(O)c(O)c2Cl)C1=O (stereo partly shown) | 32 to 64 µg/mL
CCN1CCN(C(=O)NC(C(=O)N[C@H]2Cc3cccc(C(=O)O)c3OB2O)c2ncc(O)cc2Cl)C(=O)C1=O (stereo partly shown) | 32 to 64 µg/mL
CCN1CCN(C(=O)NC(C(=O)N[C@H]2Cc3cc(F)c(F)c(C(=O)O)c3OB2O)c2ccc(O)c(O)c2Cl)C(=O)C1=O (stereo partly shown) | 2 to 4 µg/mL

Observed MIC, E. coli AG100, O=C(O)CN1CCN(C(=O)NC(C(=O)N[C@H]2Cc3cccc(C(=O)O)c3OB2O)c2ccc(O)c(O)c2Cl)C(=O)C1=O (stereo partly shown) : 8 to 16 µg/mL

With E. coli AG100 as the test system, CCN1CCN(C(=O)NC(C(=O)N[C@H]2Cc3ccc(Cl)c(C(=O)O)c3OB2O)c2ncc(O)cc2F)C(=O)C1=O (stereo partly shown) showed MIC of 32 to 64 µg/mL
